Recorded values, source patent US20240368122A1.

Test system: TF1 JAK2 V617F STAT5 reporter
Test: Cellular TF1 STAT5 assay (luciferase reporter), JAK2 V617F
Format: cell-based
Settings: TF1 JAK2 V617F, read-out: Cell PD TF1 V617F STAT5 (IC50)
pIC50: −log10 of the molar value.
reported.property: pIC50

{"substance.smiles": "CNC(=O)c1nnc(NC(=O)C2CC2)cc1Nc1cccc(-c2ccc(C(=O)N(C)Cc3cccc(C#N)n3)nc2)c1OC", "reported": "6.30 to 7.30"}
{"substance.smiles": "CNC(=O)c1nnc(NC(=O)C2CC2)cc1Nc1cccc(-c2ccc(C(=O)N(C)Cc3ccc(F)cc3)nc2)c1OC", "reported": "5.30 to 6.30"}

Incoming: Please state recorded pIC50 (tested on TF1 JAK2 V617F STAT5 reporter) of CNC(=O)c1nnc(NC(=O)C2CC2)cc1Nc1cccc(-c2cnn(C3CN(Cc4cnccn4)C3)c2)c1OC
Outgoing: 5.30 to 6.30
